Molecular target: human RORγt ligand binding domain (RORγt LBD) (Homo sapiens (Human))
Sequence (P51449 other isoform, or with tags, fused parts or gaps): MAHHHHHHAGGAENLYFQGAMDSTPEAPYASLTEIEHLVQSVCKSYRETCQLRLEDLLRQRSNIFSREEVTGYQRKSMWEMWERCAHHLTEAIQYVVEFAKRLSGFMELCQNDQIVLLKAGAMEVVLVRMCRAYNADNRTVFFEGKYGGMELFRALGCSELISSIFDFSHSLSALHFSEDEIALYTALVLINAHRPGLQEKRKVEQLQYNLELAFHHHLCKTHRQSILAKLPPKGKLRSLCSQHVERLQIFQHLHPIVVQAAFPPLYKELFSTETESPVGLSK
Experiment: RORγt ThermoFluor® assay (thermal shift binding)
Conditions: read-out: ThermoFluor® Assay, Kd
Each item that follows carries a reported Kd.
Reported metric: Kd (nM)

[
  {
    "Molecule": "C[C@H]1CCCN1C(=O)c1nc(C(=O)NCC2(O)CCC2)sc1-c1cnc(NC(C)(C)C)cc1C(F)F",
    "Reported metric": "Kd",
    "Number": 4.5
  },
  {
    "Molecule": "C[C@H]1CCCN1C(=O)c1nc(C(=O)N[C@H](C)C(C)(C)O)sc1-c1cnc(N[C@H](C2CC2)C(F)(F)F)cc1C(F)F",
    "Reported metric": "Kd",
    "Number": 1.5
  },
  {
    "Molecule": "C[C@H]1CCCN1C(=O)c1nc(C(=O)NCC(O)(C(F)(F)F)C(F)(F)F)sc1-c1cnc(NC(C)(C)C)cc1C(F)(F)F",
    "Reported metric": "Kd",
    "Number": 4
  },
  {
    "Molecule": "C[C@H]1CC(F)(F)CN1C(=O)c1nc(C(=O)NC2COCC2O)sc1-c1cnc(NC2(C)CCC2)cc1C(F)(F)F (stereo partly shown) [Example 182]",
    "Reported metric": "Kd",
    "Number": 0.12
  }
]

----------
Each item that follows carries a reported pKd.
Molecular target: human RORγt ligand binding domain (RORγt LBD) (Homo sapiens (Human))
Assay: RORγt ThermoFluor® assay (thermal shift binding)
Conditions: read-out: ThermoFluor® Assay, Kd
pKd: −log10 of the molar value.

[
  {
    "Compound": "C[C@H]1CCCN1C(=O)c1nc(C(=O)NCC(C)(C)O)sc1-c1cnc(NC2CCCCC2)c(C#N)c1",
    "pKd": 6.68
  },
  {
    "Compound": "C[C@H]1CCCN1C(=O)c1nc(C(=O)NCC(C)(C)O)sc1-c1cnc(NCC2(C(F)(F)F)CC2)cc1C(F)(F)F",
    "pKd": 8.62
  },
  {
    "Compound": "O=C(N[C@H]1CC[C@@H]1O)c1nc(C(=O)N2C3CCC2CC3)c(-c2cnc(N[C@@H](C3CC3)C(F)(F)F)cc2C(F)F)s1 (relative stereo)",
    "pKd": 8.64
  },
  {
    "Compound": "C[C@H](Nc1cc(C(F)F)c(-c2sc(C(=O)N[C@H]3CC[C@H](O)C3)nc2C(=O)N2CCC[C@@H]2C)cn1)C(F)(F)F",
    "pKd": 8.36
  },
  {
    "Compound": "CC[C@H](Nc1cc(C(F)F)c(-c2sc(C(=O)N[C@H]3C[C@H](O)C3)nc2C(=O)N2C3CCC2CC3)cn1)C(F)(F)F",
    "pKd": 8.00
  },
  {
    "Compound": "CC[C@H](Nc1cc(C(F)F)c(-c2sc(C(=O)N[C@@H]3C[C@@H]3O)nc2C(=O)N2CCC[C@@H]2C)cn1)C(F)(F)F (relative stereo)",
    "pKd": 8.09
  },
  {
    "Compound": "C[C@H]1CCCN1C(=O)c1nc(C(=O)NCC(C)(C)O)sc1-c1cnc(NC2(C)CCC2)cc1C(F)F",
    "pKd": 8.24
  },
  {
    "Compound": "C[C@H]1CCCN1C(=O)c1nc(C(=O)NCC(C)(C)O)sc1-c1cnc(N[C@@H]2CCCC2(F)F)cc1C(F)(F)F (single isomer, unassigned)",
    "pKd": 8.31
  },
  {
    "Compound": "C[C@H]1CC(F)(F)CN1C(=O)c1nc(C(=O)N[C@H]2C[C@H](O)C2)sc1-c1cnc(NC(C)(C)C)cc1C(F)F",
    "pKd": 8.60
  },
  {
    "Compound": "CC(C)(O)CNC(=O)c1nc(C(=O)N2CCC(F)CC2)c(-c2cnc(NC3CC4(C3)CC(F)(F)C4)cc2C(F)(F)F)s1",
    "pKd": 6.36
  },
  {
    "Compound": "CC[C@@H](Nc1cc(C(F)F)c(-c2sc(C(=O)N[C@@H]3COC[C@H]3O)nc2C(=O)N2CCC[C@@H]2C)cn1)C(F)(F)F",
    "pKd": 8.44
  },
  {
    "Compound": "C[C@H](NC(=O)c1nc(C(=O)N2C3CCC2CC3)c(-c2cnc(N[C@@H](C3CC3)C(F)(F)F)cc2C(F)F)s1)C(C)(C)O",
    "pKd": 8.62
  },
  {
    "Compound": "CC[C@H](Nc1cc(C(F)(F)F)c(-c2sc(C(=O)N[C@@H]3COC[C@H]3O)nc2C(=O)N2CCC[C@@H]2C)cn1)C(F)(F)F",
    "pKd": 8.72
  },
  {
    "Compound": "C[C@H]1CC(F)(F)CN1C(=O)c1nc(C(=O)N[C@H]2COC[C@H]2O)sc1-c1cnc(NC2(C)CCC2)cc1C(F)(F)F (relative stereo)",
    "pKd": 9.15
  },
  {
    "Compound": "CC[C@H](Nc1cc(C(F)F)c(-c2sc(C(=O)NC3CCS(=O)(=O)CC3)nc2C(=O)N2CC(F)(F)C[C@@H]2C)cn1)C(F)(F)F",
    "pKd": 9.43
  },
  {
    "Compound": "CC[C@H](Nc1cc(C(F)F)c(-c2sc(C(=O)N[C@H]3CCC[C@@H]3O)nc2C(=O)N2CCC[C@@H]2C)cn1)C(F)(F)F",
    "pKd": 9.01
  },
  {
    "Compound": "C[C@H]1CCCCN1C(=O)c1nc(C(=O)NCC(C)(C)O)sc1-c1cnc(NC(C)(C)C2CC2)cc1C(F)F",
    "pKd": 9.72
  },
  {
    "Compound": "C[C@H](Nc1cc(C(F)F)c(-c2sc(C(=O)NCC(C)(C)O)nc2C(=O)N2CCCC[C@@H]2C)cn1)C1CC1",
    "pKd": 9.19
  },
  {
    "Compound": "CC(C)(O)CNC(=O)c1nc(C(=O)N2CCC(F)CC2)c(-c2cnc(NC3CCCCC3)c(C#N)c2)s1",
    "pKd": 6.77
  },
  {
    "Compound": "C[C@H]1CCCN1C(=O)c1nc(C(=O)N[C@H]2C[C@@H](O)C2)sc1-c1cnc(NC(C)(C)C)cc1C(F)(F)F",
    "pKd": 7.68
  },
  {
    "Compound": "C[C@@H](NC(=O)c1nc(C(=O)N2C3CCC2CC3)c(-c2cnc(NC3(C)CCC3)cc2C(F)F)s1)C(C)(C)O",
    "pKd": 8.77
  },
  {
    "Compound": "C[C@H]1CCCN1C(=O)c1nc(C(=O)N[C@H]2C[C@H](O)C2)sc1-c1cnc(N[C@H](C)C(F)(F)F)cc1C(F)F",
    "pKd": 7.54
  },
  {
    "Compound": "CC1(Nc2cc(C(F)F)c(-c3sc(C(=O)N[C@H]4C[C@H](O)C4)nc3C(=O)N3C4CCC3CC4)cn2)CCC1",
    "pKd": 8.38
  },
  {
    "Compound": "C[C@H]1CCCN1C(=O)c1nc(C(=O)N[C@H]2COC[C@@H]2O)sc1-c1cnc(NC(C)(C)C)cc1C(F)F",
    "pKd": 8.37
  },
  {
    "Compound": "C[C@H](Nc1cc(C(F)F)c(-c2sc(C(=O)N[C@H]3C[C@@H]3O)nc2C(=O)N2CCC[C@@H]2C)cn1)C(F)(F)F (single isomer, unassigned) [Example 158]",
    "pKd": 7.77
  }
]
